Listed here: molecules with reported Ki for Carbonic anhydrase 9 (Homo sapiens, UniProt Q16790).
Report the value in nM with no unit label.

Recorded Ki, per entry:
| Input smiles | Measured on | Ki, nM |
| --- | --- | --- |
| NS(=O)(=O)c1ccc(NC(=O)N2CCN(c3ccc(Cl)cc3)CC2)cc1 | Carbonic anhydrase 9 (Homo sapiens, UniProt Q16790) | 320 |
| COc1ccccc1N1CCN(C(=O)Nc2ccc(S(N)(=O)=O)cc2)CC1 | Carbonic anhydrase 9 (Homo sapiens, UniProt Q16790) | 237 |
| NS(=O)(=O)c1ccc(NC(=O)N2CCN(Cc3ccc(Cl)cc3)CC2)cc1 | Carbonic anhydrase 9 (Homo sapiens, UniProt Q16790) | 39.6 |
| NS(=O)(=O)c1ccc(NC(=O)N2CCN(c3ccccc3)CC2)cc1 | Carbonic anhydrase 9 (Homo sapiens, UniProt Q16790) | 8.7 |

Proceeding to the next molecule to report its Ki.
Form field - read-out: Ki; system: Carbonic anhydrase 9 (Homo sapiens, UniProt Q16790); submitted item: COc1ccc(N2CCN(C(=O)Nc3ccc(S(N)(=O)=O)cc3)CC2)cc1
409

----------
Measured on: Carbonic anhydrase 9 (Homo sapiens, UniProt Q16790)
Conditions: at 0.001 µM
Description: Inhibition of human carbonic anhydrase 9 at 10^-9 M preincubated for 15 mins by stopped flow CO2 hydration method relative to control
Measured inhibition, listed per entry.
Report the value in % with no unit label.

| Input smiles | Unit string | Value reported |
| --- | --- | --- |
| NS(=O)(=O)c1ccc(NC(=O)N2CCN(C(=O)Cc3ccc(Cl)cc3)CC2)cc1 | % | 37 |
| NS(=O)(=O)c1ccc(NC(=O)N2CCN(C(=O)COc3ccc(Cl)cc3Cl)CC2)cc1 | % | 33 |

Proceeding to the next molecule to report its inhibition.
So what's the measured inhibition for this one? NS(=O)(=O)c1ccc(NC(=O)N2CCN(C(=O)Cc3ccc(Cl)cc3Cl)CC2)cc1
38

Value source: ChEMBL document CHEMBL3608296
